molecular target: T1, human condensin II pentameric complex (SMC2, SMC4, NCAPH2, NCAPD3, NCAPG2) (human, UniProt O95347 1-1197; Q9NTJ3 1-1288; Q6IBW4 1-605; P42695 1-1498; Q86XI2 1-1143); test: fluorescence polarisation; competition; 0.63 µM condensin II and 0.3 µM 5-FAM peptide fixed, unlabelled peptide in two-fold series; 20 mM Tris pH 7.5, 200 mM NaCl, 1 mM DTT; fit for directly competitive binding; conditions: both partners purified
T1 construct: SMC2, human, subunit of condensin II; SMC4, human, subunit of condensin II; NCAPH2, human, kleisin subunit of condensin II; NCAPD3 (CAP-D3), human, HAWK subunit of condensin II; NCAPG2 (CAPG2), human, HAWK subunit of condensin II; It says only 'strep-tagged condensin II'; also called pentameric condensin II; strep-tagged condensin II; source: insect cells, purified as previously described (Kong …)
Non-standard residues stand in square brackets, D forms with d. No end group written: not given here. pS = N[C@@H](COP(=O)(O)O)C(=O)O
Consider the following binders; for each one, report its pKd.
Numbers only, as −log10 of the molar value.

{"columns": ["Binder", "pKd"],
 "data": [
  ["CGESSYDDYF[pS]PDNLKER (S417 is phosphoserine; also called MCPH1pS417; source: synthetic peptide (Genscript)) [MCPH1_(407-424) peptide phosphorylated at serine 417]", 4.28]
]}

Problem: Give the reported value of pKd for this record: CGESSYDDYFSPDNLKER (source: synthetic peptide (Genscript)) [MCPH1_(407-424) peptide, wild-type, unlabelled]
Result: 5.28

The values you see were collected from paper PMC8673838.
